molecular target: Beta-3 Adrenergic Receptor (Homo sapiens (Human), UniProt P13945); assay: HTRF cAMP antagonist assay (IC50 determination); settings: CHO-K1 cells stably expressing recombinant receptor; antagonism of isoproterenol at EC90; cAMP readout
Sequence (P13945 whole entry, species assumed): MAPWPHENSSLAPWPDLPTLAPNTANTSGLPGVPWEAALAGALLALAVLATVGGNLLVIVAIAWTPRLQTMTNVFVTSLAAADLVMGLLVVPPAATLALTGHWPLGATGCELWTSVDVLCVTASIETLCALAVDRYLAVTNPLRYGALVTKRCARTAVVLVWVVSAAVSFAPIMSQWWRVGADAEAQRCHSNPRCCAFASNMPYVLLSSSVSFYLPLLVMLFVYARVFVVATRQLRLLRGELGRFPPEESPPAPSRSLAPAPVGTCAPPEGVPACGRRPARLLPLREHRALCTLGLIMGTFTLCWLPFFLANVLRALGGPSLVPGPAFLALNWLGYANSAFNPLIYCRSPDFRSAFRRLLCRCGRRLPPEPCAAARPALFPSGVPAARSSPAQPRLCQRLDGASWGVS
For each of the compounds below, state its pIC50.
Numbers only, as −log10 of the molar value.

As a guide, the following entries are already answered.
compound="CS(=O)(=O)c1cccc(OC[C@@H](O)CNC2COC3(CCN(S(=O)(=O)c4ccc5cc(Cl)ccc5c4)CC3)C2)c1 (stereo partly drawn) [Compound 73]" measuredresult=7.62
compound="COCS(=O)(=O)c1cccc(OC[C@@H](O)CN[C@H]2COC3(CCN(S(=O)(=O)c4c[nH]c5ccccc45)CC3)C2)c1 [Compound 312]" measuredresult=7.50
compound="CCCS(=O)(=O)c1cccc(OC[C@@H](O)CN[C@H]2COC3(CCN(S(=O)(=O)c4cnc5ccccc5c4)CC3)C2)c1 [Compound 139]" measuredresult=7.44
compound="Cc1ccc2ncc(S(=O)(=O)N3CCC4(CC3)C[C@@H](NC[C@H](O)COc3cccc(S(=O)(=O)C5CC5)c3)CO4)c(O)c2c1 [Compound 324]" measuredresult=7.65
compound="CS(=O)(=O)c1cccc(OC[C@@H](O)CNC2COC3(CCN(S(=O)(=O)c4cccc(-c5ccccn5)c4)CC3)C2)c1 (stereo partly drawn) [Compound 45]" measuredresult=7.63
compound="CCn1cc(S(=O)(=O)N2CCC3(CC2)C[C@@H](NC[C@H](O)COc2cccc(S(=O)(=O)C4CC4)c2)CO3)c(=O)c2ccccc21 [Compound 297]" measuredresult=7.58

For each of the items listed, what is its pIC50?
1. O=S(=O)(c1cncc(Br)c1)N1CCC2(CC1)C[C@@H](NC[C@H](O)COc1cccc(S(=O)(=O)C3(CO)CC3)c1)CO2 [Compound 185]
2. CCCS(=O)(=O)c1cccc(OC[C@@H](O)CNC2COC3(CCN(S(=O)(=O)c4ccc5ccccc5c4)CC3)C2)c1 (stereo partly drawn) [Compound 6]
3. NCc1ccc(-c2cc(S(=O)(=O)N3CCC4(CC3)C[C@@H](NC[C@H](O)COc3cccc(S(=O)(=O)C5(CO)CC5)c3)CO4)ccc2F)cc1 [Compound 216]

Result ::
1. 6.59
2. 7.78
3. 7.58

* * *

Biological target: Beta-3 Adrenergic Receptor (Homo sapiens (Human), UniProt P13945)
Test: HTRF cAMP antagonist assay (IC50 determination)
Conditions: CHO-K1 cells stably expressing recombinant receptor; antagonism of isoproterenol at EC90; cAMP readout
Description: HTRF cAMP assays were performed according to manufacturer's instructions (Cisbio, cAMP Dynamic 2 Assay Kit; #62AM4PEJ). CHO-K1 cells stably expressing recombinant receptor were harvested and suspended in warm PBS to make a 300,000 cells/mL stock. […] Compounds were dissolved and serially diluted (5-fold) in DMSO to generate a 10-point dose response stock. […] The EC90 for isoproterenol, a beta-adrenergic agonist, was determined in separate experiments using standard methods to measure agonist potencies. […]
valueType: log10(IC50) (log10 of the value in nM)
Friendly reminder: values = log10 of IC50, unit nM.

As a guide, the following entries are already answered.
compound="CS(=O)(=O)c1cccc(OC[C@@H](O)CNC2COC3(CCN(S(=O)(=O)c4ccc5[nH]cnc5c4)CC3)C2)c1 (stereo partly drawn) [Compound 76]" valuetype=log10(IC50) measuredresult=1.56
compound="O=c1c(S(=O)(=O)N2CCC3(CC2)C[C@@H](NC[C@H](O)COc2cccc(S(=O)(=O)C4CC4)c2)CO3)c[nH]c2ccccc12 [Compound 326]" valuetype=log10(IC50) measuredresult=1.24

For each of the items listed, what is its log10(IC50)?
1. CC(C)(CN)c1ccc(-c2cccc(S(=O)(=O)N3CCC4(CC3)C[C@@H](NC[C@H](O)COc3cccc(S(=O)(=O)C5(CO)CC5)c3)CO4)c2)cc1 [Compound 181]
2. CS(=O)(=O)c1cccc(OC[C@@H](O)CN[C@H]2COC3(CCN(S(=O)(=O)c4ccc5ncccc5c4)CC3)C2)c1 [Compound 111]
3. O=S(=O)(CCO)c1cccc(OC[C@@H](O)CN[C@H]2COC3(CCN(S(=O)(=O)c4cccc(-c5cccnc5)c4)CC3)C2)c1 [Compound 97]
4. CS(=O)(=O)c1cccc(OC[C@@H](O)CNC2COC3(CCN(S(=O)(=O)c4cccc(-c5ccc(CNCC(F)(F)F)cc5)c4)CC3)C2)c1 (stereo partly drawn) [Compound 82]
5. O=S(=O)(CC1CC1)c1cccc(OC[C@@H](O)CN[C@H]2COC3(CCN(S(=O)(=O)c4cnc5ccccc5c4)CC3)C2)c1 [Compound 140]
6. O=S(=O)(c1cccc(OC[C@@H](O)CNC2COC3(CCN(S(=O)(=O)c4ccc5ccccc5c4)CC3)C2)c1)C1CCCC1 (stereo partly drawn) [Compound 19]
7. CS(=O)(=O)c1cccc(OC[C@@H](O)CNC2COC3(CCN(C(=O)c4c[nH]c5ccccc45)CC3)C2)c1 (stereo partly drawn) [Compound 66]

Result ::
[2.26, 1.49, 2.33, 1.64, 1.66, 1.82, 2.99]
